// values below are reported F
Test system: Rattus norvegicus
test_protocol: Oral bioavailability in rat at 5 mg/kg
Format: ADME, organism-based
protocol_conditions: in vivo
Just the number please, in %, no unit attached.

A selection of reference data follows.
{"columns": ["structure_notation", "units_text", "observed_value"],
 "data": [
  ["O=C(C(=O)N1CCN(C(=O)c2ccccc2)CC1)c1c[nH]c2c(-n3cncn3)ncc(F)c12", "%", 95],
  ["Cc1ncn(-c2ncc(F)c3c(C(=O)C(=O)N4CCN(C(=O)c5ccccc5)CC4)c[nH]c23)n1", "%", 77],
  ["NC(=O)c1ncc(F)c2c(C(=O)C(=O)N3CCN(C(=O)c4ccccc4)CC3)c[nH]c12", "%", 68],
  ["O=C(C(=O)N1CCN(C(=O)c2ccccc2)CC1)c1c[nH]c2c(-c3cc[nH]n3)ncc(F)c12", "%", 33],
  ["CNC(=O)c1ncc(F)c2c(C(=O)C(=O)N3CCN(C(=O)c4ccccc4)CC3)c[nH]c12", "%", 63]
]}

Now, please, on to the next compound.
// returns reported F for input Cc1ccn(-c2ncc(F)c3c(C(=O)C(=O)N4CCN(C(=O)c5ccccc5)CC4)c[nH]c23)n1 61
